Please provide measured viability, T/C for the entries that follow.
# Tested on: 991263-137-R1-J2-PDC complex spheroid viability;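 further: spheroids exposed to compounds for 7 days before readout; 100% = DMSO vehicle control viability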
# experiment: Anticancer human tumor 991263-137-R1-J2-PDC patient-derived colon adenocarcinoma cell line growth inhibition [POLQ]
# recorded_conditions: second compound 1 µM; first compound 0.0316 µM; stronger effect = lower value
Please make sure the unit comes right after the number.

Prompt: So what viability, T/C did CC1COCCN1c1cc(C2(S(C)(=N)=O)CC2)nc(-c2ccnc3[nH]ccc23)n1 (stereo not given) + Nc1ccc(C#CCN(C(=O)Cc2ncc(C(F)(F)F)cc2C(F)(F)F)c2ccc(F)cc2)nn1 get with 991263-137-R1-J2-PDC complex spheroid viability?
Response: 119%

Prompt: So what viability, T/C did CC1COCCN1c1cc(-c2ccnn2C)c2ccnc(-c3ccn[nH]3)c2n1 (stereo not given) + Nc1ccc(C#CCN(C(=O)Cc2ncc(C(F)(F)F)cc2C(F)(F)F)c2ccc(F)cc2)nn1 get with 991263-137-R1-J2-PDC complex spheroid viability?
Response: 108%

Prompt: So what viability, T/C did CCc1cc2c(N3CCc4c(cc(Cn5ccnc5)cc4-c4cn(C)nc4C(F)(F)F)C3=O)cc(C)nc2c(OC)n1 + COC1C(OC(N)=O)C(O)C(Oc2ccc3c(O)c(NC(=O)c4ccc(O)c(CC=C(C)C)c4)c(=O)oc3c2C)OC1(C)C get with 991263-137-R1-J2-PDC complex spheroid viability?
Response: 97.4%

Prompt: So what viability, T/C did CCc1cc2c(N3CCc4c(cc(Cn5ccnc5)cc4-c4cn(C)nc4C(F)(F)F)C3=O)ccnc2c(OC)n1 + Nc1ccc(C#CCN(C(=O)Cc2ncc(C(F)(F)F)cc2C(F)(F)F)c2ccc(F)cc2)nn1 get with 991263-137-R1-J2-PDC complex spheroid viability?
Response: 95.1%

Prompt: So what viability, T/C did CC1COCCN1c1cc(C2(O)CC3CCC(C2)O3)c2cnn(-c3ccn[nH]3)c2n1 (stereo not given) + Nc1ccc(C#CCN(C(=O)Cc2ncc(C(F)(F)F)cc2C(F)(F)F)c2ccc(F)cc2)nn1 get with 991263-137-R1-J2-PDC complex spheroid viability?
Response: 110%

Prompt: So what viability, T/C did Cn1ncnc1[C@H]1c2n[nH]c(=O)c3cc(F)cc(c23)N[C@@H]1c1ccc(F)cc1 + Cc1cccc(N(C)C(=O)C2C(O)CCN2c2nc(C)cc(C(F)(F)F)c2C#N)c1 get with 991263-137-R1-J2-PDC complex spheroid viability?
Response: 99.7%

Prompt: So what viability, T/C did CCCS(=O)(=O)Nc1ccc(F)c(C(=O)c2c[nH]c3ncc(-c4ccc(Cl)cc4)cc23)c1F + COC1C(OC(N)=O)C(O)C(Oc2ccc3c(O)c(NC(=O)c4ccc(O)c(CC=C(C)C)c4)c(=O)oc3c2C)OC1(C)C get with 991263-137-R1-J2-PDC complex spheroid viability?
Response: 105%

Prompt: So what viability, T/C did CCc1cc2c(N3CCc4c(cc(Cn5ccnc5)cc4-c4cn(C)nc4C(F)(F)F)C3=O)ccnc2c(OC)n1 + COC1C(OC(N)=O)C(O)C(Oc2ccc3c(O)c(NC(=O)c4ccc(O)c(CC=C(C)C)c4)c(=O)oc3c2C)OC1(C)C get with 991263-137-R1-J2-PDC complex spheroid viability?
Response: 101%

Prompt: So what viability, T/C did O=c1[nH]cc(F)c(=O)[nH]1 + COC1C(OC(N)=O)C(O)C(Oc2ccc3c(O)c(NC(=O)c4ccc(O)c(CC=C(C)C)c4)c(=O)oc3c2C)OC1(C)C get with 991263-137-R1-J2-PDC complex spheroid viability?
Response: 99%

Prompt: So what viability, T/C did O=C(c1cc(Cc2n[nH]c(=O)c3ccccc23)ccc1F)N1CCN(C(=O)C2CC2)CC1 + Nc1ccc(C#CCN(C(=O)Cc2ncc(C(F)(F)F)cc2C(F)(F)F)c2ccc(F)cc2)nn1 get with 991263-137-R1-J2-PDC complex spheroid viability?
Response: 104%
